Tested on: UACC-257 melanoma
Assay Protocol: NCI-60 one-dose screen, 48 h (100 = growth as untreated, 0 = no growth, -100 = all killed)
Recorded Conditions: 10 µM unless noted
Compounds without any hit were thinned out: in the full panel of roughly 83,000, 20% have a hit.
Mark met only when growth stays strictly below 60%. Values equal to the cut-off are not met.

# example entries with known answers
INSERT INTO measurements (mol, discrete_label) VALUES
  ('O=C(O)c1ccc(-c2ccc(/C=N/NC(=O)c3[nH]c4ccc(Br)cc4c3-c3ccccc3)o2)cc1', 'met'),
  ('C(=C\c1cc(/C=C/c2ccccc2)c2ccccc2n1)/c1ccccc1', 'not met'),
  ('Cc1cc2nc3c([nH]c2cc1C)c1ccc(=O)cc1n3CCN(C)C', 'not met');

Alright, here's another compound for you.
### Prompt Bench note: check whether O=C(/C=C/c1cccc(OCc2ccccc2)c1)c1nc2ccccc2[nH]1 shows growth below 60%
### Response not met

* * *

System: IGROV1 ovarian
Assay Protocol: NCI-60 one-dose screen, 48 h (100 = growth as untreated, 0 = no growth, -100 = all killed)
Recorded Conditions: 10 µM unless noted
This is part of a sample that, as a whole, favours compounds with a hit. Of some 83,000 tested, about 20% had one in any assay.
Test Readout: growth (%)
Kindly answer with a numeric value in %, unit omitted.

Study these solved cases before continuing.
INSERT INTO measurements (compound, system_name, units, numeric_readout) VALUES
  ('COC(=O)C[C@](O)(CCCC(C)(C)O)C(=O)O[C@H]1C(OC)=C[C@@]23CCCN2CCc2cc4c(cc2[C@@H]13)OCO4', 'IGROV1 ovarian', '%', -15.7),
  ('CC(=O)Nc1cccc(Nc2nccc(N[C@@H](C)c3ccccc3)n2)c1', 'IGROV1 ovarian', '%', 15.9),
  ('COc1ccc2cc([C@H](C)C(=O)N/N=C/c3ccc(Br)cc3)ccc2c1', 'IGROV1 ovarian', '%', 102);

Next item in the queue.
### Prompt Find the recorded growth belonging to O=C(/C=C/Nc1ccc2oc(=O)ccc2c1)c1cc2cc(Br)ccc2oc1=O and report it.
### Response 105

* * *

Tested on: LOX IMVI melanoma
Assay Protocol: NCI-60 one-dose screen, 48 h
Recorded Conditions: 10 µM
The panel holds about 83,000 compounds, 20% with a hit somewhere; the sample as a whole holds those more often. The source made the active and inactive calls. Rule for the calls: active = growth percent below 10; inactive = the rest.
Outcome field: choose from 1 for active, 0 for inactive

Answered examples (3):
INSERT INTO measurements (molecule, discrete_label) VALUES
  ('O=C(CCN1C(=O)/C(=C/c2ccc(F)cc2)SC1=S)N1CCOCC1', 0),
  ('COc1ccc(N2N=C(c3ccc4c(c3)OCO4)CC2c2cccc(NC(=O)CCNS(=O)(=O)c3ccc(Cl)cc3)c2)cc1 (configuration not stated)', 0),
  ('COc1cccc(/C=C/C(=O)c2ccc(OC)c(S(N)(=O)=O)c2)c1', 1);

### Prompt Which outcome was entered for the molecule CCCCSc1nc(Nc2ccc(S(N)(=O)=O)cc2)c(C#N)c(-c2ccc(Cl)cc2)n1 in this test?
### Response 1

* * *

Test system: OVCAR-8 ovarian
Assay Protocol: NCI-60 one-dose screen, 48 h
Recorded Conditions: 10 µM unless noted
Compounds without any hit were thinned out: in the full panel of roughly 83,000, 20% have a hit. The source made the active and inactive calls. How the source made its calls: active means growth percent below 10; inactive means the rest.
# output must be one of active, inactive

Observe how each entry below is paired with its result.
INSERT INTO assay_data (compound, discrete_label) VALUES
  ('Cc1c(C(=O)NNC(=O)c2ccc(Cl)cc2)nnn1-c1ccc(Br)cc1', 'inactive'),
  ('Cn1cc(-c2cc(N)n3nc(-c4c[nH]c5ccccc45)cc3n2)c2cc(Br)cnc21', 'active'),
  ('O=c1[nH]n(C(=S)N/N=C/c2ccccc2Cl)c(=O)c2ccccc12', 'active'),
  ('C=C1CC[C@@H]2[C@]3(C)COC(c4cn[nH]c4-c4ccc(F)cc4)O[C@@H]3CC[C@@]2(C)[C@@H]1C/C=C1/C(=O)OCC1O (some centres undefined)', 'active'),
  ('CC(C)Sc1nc(NCCc2c[nH]c3ccccc23)c(C#N)c(-c2ccc(F)cc2)n1', 'inactive');

### Prompt Recorded call for O=c1oc2ccccc2cc1-c1csc(N=Nc2c(O)[nH]c3ccc(Cl)cc23)n1 ?
### Response inactive

### Prompt Identify the outcome logged in this assay for the compound shown: C=C1CCC2C3(C)COC(c4cc(F)cc(F)c4)OC3CCC2(C)C1CC(O)C1=CCOC1=O (centres undefined)
### Response inactive

### Prompt What did the test return for O=C1Nc2cc(Cl)ccc2/C1=C/c1cccc(OCc2ccccn2)c1 ?
### Response active

### Prompt I'd appreciate the recorded outcome for COc1ccc(/C=C/c2n(Cc3ccc4ccccc4c3)c3ccccc3[n+]2Cc2ccc3ccccc3c2)cc1 from this test.
### Response active

* * *

Test system: OVCAR-4 ovarian
Assay Protocol: NCI-60 one-dose screen, 48 h
Recorded Conditions: 10 µM unless noted
About 83,000 compounds went through this panel and 20% of them were active in at least one assay; those are over-represented in the sample as a whole. Calls of active or inactive are those of the source. How the source made its calls: active means growth percent below 10; inactive means the rest.
Parameter call: string, one of class 1 = active, class 0 = inactive

Worked examples, 5 compounds total:
INSERT INTO results (compound, discrete_label) VALUES
  ('O=C1/C(=C/C2=Cc3ccccc3OC2)SC(=S)N1c1ccccc1F', 'class 0'),
  ('Cc1ccccc1[C@H]1C(C(=O)c2ccc(Cl)cc2)C2(N[C@@H]1c1ccccc1)C(=O)Nc1ccc(Br)cc12 (some centres undefined)', 'class 0'),
  ('C=C1CCC2C3(C)COC(c4ccccc4)OC3CCC2(C)C1CC(Sc1ccccc1)C1=CCOC1=O (centres undefined)', 'class 0'),
  ('Cn1cc(-c2cc3nc(-c4c[nH]c5ccc(Cl)cc45)cc(N)n3n2)c2ccccc21', 'class 1'),
  ('C=C1CCC2C3(C)COC(c4ccccc4F)OC3CCC2(C)C1CC(O)C1=CCOC1=O (centres undefined)', 'class 0');

### Prompt What classification did N/C(=N\c1nc2ccccc2s1)NC(=O)Nc1ccccc1Br end up with in this test?
### Response class 1

### Prompt For CCOC(=O)C1=C(N)N(c2ccccc2)C2=C(C(=O)CC(C)(C)C2)C1c1ccccc1Cl (centres undefined) , what call appears in the results of this test?
### Response class 0

### Prompt Recorded call for CCCCc1c(Nn2cnnn2)no[n+]1[O-] ?
### Response class 0

### Prompt What call does the record list for C=Cn1cc(C(=O)O)c(=O)c2cc(F)c(N3CCN(c4nccc(-c5nccs5)n4)CC3)cc21 ?
### Response class 0

* * *

System: ACHN renal
Assay Protocol: NCI-60 one-dose screen, 48 h (100 = growth as untreated, 0 = no growth, -100 = all killed)
Recorded Conditions: 10 µM unless noted
This is part of a sample that, as a whole, favours compounds with a hit. Of some 83,000 tested, about 20% had one in any assay.
Reported values of growth for individual entries
Write down the numeric answer in % and omit the unit.

INSERT INTO measurements (mol, test_readout, units, numeric_readout) VALUES
  ('Cn1cc(-c2nnc(N)nc2-c2c[nH]c3ccc(Br)cc23)c2cc(Br)cnc21', 'growth', '%', 61.3);

### Prompt Dear colleague, I am looking for the recorded growth of the following compound: COc1cc(-c2ccc(/C=N/NC(=O)c3[nH]c4ccc(Br)cc4c3-c3ccccc3)o2)cc(OC)c1OC
### Response 76

### Prompt Entry COc1ccc(/C=C2\C(=O)Nc3ccc(Cl)cc32)cc1OCc1ccccn1 : reported growth = ?
### Response 12.2

### Prompt Using the record for Cc1ccc(C(=O)CSc2nc3ccc(F)cc3c(=O)n2-c2ccc(Cl)cc2)cc1 , report its growth.
### Response 33.3

### Prompt I have this compound here, COc1ccccc1C(=O)NN1C(=O)/C(=C/C2=Cc3ccccc3OC2)SC1=S , and I need its recorded growth.
### Response 103

* * *

Test system: IGROV1 ovarian
Assay Protocol: NCI-60 one-dose screen, 48 h
Recorded Conditions: 10 µM unless noted
This is part of a sample that, as a whole, favours compounds with a hit. Of some 83,000 tested, about 20% had one in any assay. Activity calls are given as the source filed them. Rule for the calls: active = growth percent below 10; inactive = the rest.
Hi! Could you answer with just one of these? t (active), f (inactive)

INSERT INTO results (compound, discrete_label) VALUES
  ('Cn1cc(-c2cc3nc(-c4cn(C)c5ncc(Br)cc45)cc(N)n3n2)c2cc(Cl)ccc21', 't');

### Prompt Hi team, can someone confirm the assay call for O=C(COc1ccc(NC(=O)Nc2ccc(Cl)c(Cl)c2)cc1)N=Nc1c(O)[nH]c2ccc(Cl)cc12 ?
### Response t

### Prompt Per the assay record, what outcome was assigned to CCOP(=O)(OCCCl)c1nc(-c2ccc(C)cc2)oc1NCc1ccccc1 (stereo not given) ?
### Response f

### Prompt Per the records of this test, what outcome belongs to O=c1[nH]c2ccccc2cc1CSc1cccc(Nc2nccc(-c3ccc4ccccc4c3)n2)c1 ?
### Response f

### Prompt Look up the recorded call for O=C(CCN1C(=O)/C(=C/c2ccc(F)cc2)SC1=S)N1CCOCC1 in this test.
### Response f
